These measurements were taken from ChEMBL document CHEMBL1201862.

System: CAKI-1
Experiment: NCI tumour cell line growth inhibition, 48 h
Calls of active or inactive are those of the source. No stated cut-off is given here; in the data, active = GI50 up to about 1.1 µM and inactive = higher.

| compound | measured target | GI50 |
| --- | --- | --- |
| CC1(C)CC[C@]2(C(=O)O)CC[C@]3(C)C(=CC[C@@H]4[C@@]5(C)CC[C@H](OC6OC(C(=O)O)C(O)C(O)C6O)C(C)(C)[C@@H]5CC[C@]43C)[C@@H]2C1 (some centres undefined) | CAKI-1 | 18.7 µM (inactive) |
| C=CCNC(=O)N(CCC)CCCC(NC(C)=O)C(=O)NCc1ccccc1 (centres undefined) | CAKI-1 | > 100 µM (inactive) |
| O=C1OC(OC/C(Br)=C(/Br)COC2OC(=O)C(Cl)=C2Cl)C(Cl)=C1Cl (centres undefined) | CAKI-1 | 3.15 µM (inactive) |
| COc1nc(N=P(c2ccccc2)(c2ccccc2)c2ccccc2)cc(=O)n1C | CAKI-1 | > 100 µM (inactive) |

----------
System: K562
Assay: NCI tumour cell line growth inhibition, 48 h
Activity calls are given as the source filed them. Rule as the data show it: active = GI50 up to about 1.1 µM and inactive = higher.
Outcomes: y for active, n for inactive

| compound | discrete label |
| --- | --- |
| CCN(CC)CC(=O)O[C@]1(CC)C(=O)OCc2c1cc1n(c2=O)Cc2cc3ccccc3nc2-1 | y |
| O=c1oc2ccc(-n3c(=O)c4ccccc4c4ccccc4c3=O)cc2c2ccccc12 | n |
| Cc1c(CN2CCOCC2)c(CN2CCOCC2)c(C)n1-c1ccc(Cl)cn1 | n |
| COc1cccc(/C(CC(O)(C(F)(F)F)C(F)(F)F)=N\N(C)C)c1 | n |
| COC(=O)CCn1cnc2c(SC)ncnc21 | n |
| CNC(Cc1ccccc1)c1cccc(OC)c1O (stereo unspecified) | n |
| CC1(C)CCCCCCC2OC2CCCCCC(C)(C)C1=O (stereo unspecified) | n |
| N#Cc1ccc(Oc2nc3ccccc3nc2-c2ccccc2)cc1 | n |
| CCCOP(=S)(N1CC1)N1CC1 | n |
| CC1=CC(=O)CC2(C)CC[C@@H]3C[C@]12OC3(C)C (stereo partly specified) | n |
| CN1CC2=C(N=C(S)NC2c2ccccc2Cl)/C(=C/c2ccccc2Cl)C1 (stereo unspecified) | n |
| N#CC(C(=O)Nc1ccccc1)C1=C(Cl)C(=O)c2ccccc2C1=O (stereo unspecified) | n |
| Cn1c(=O)n(-c2c3ccccc3c(Cl)c3ccccc23)n(C(C)(C)C)c1=O | n |
| CCCNC1=Nc2ccccc2NC(C)C1 (stereo unspecified) | n |
| CCOC(=O)CC(C)C1(C(=O)OCC)CCCCC1=O (stereo unspecified) | n |
| COc1ccccc1N1CCN(S(=O)(=O)c2ccc(Cl)cc2)C1=N | n |
| Cc1cc2nc(-c3c(F)cccc3F)n(Cc3c(F)cccc3F)c2cc1C | n |
| COC(=O)C1CC2CCC1(O[Si](C(C)C)(C(C)C)C(C)C)C(O)C2 (stereo unspecified) | n |
| Nc1nc(O)c2[nH]cnc2[n+]1[O-] | n |
| CCOCc1nc2c(OC)c(-c3nc4ccc(N5CCN(C)CC5)cc4[nH]3)cc(OC)c2[nH]1 | n |
| CC(C)=CCC[C@@H](C)C1=C(O)C(=O)C(C)=C(Nc2ccccc2)C1=O | n |
| O=[N+]([O-])c1cc(Cl)cc2cc(Br)cnc12 | n |
| CC(C)C1=C(O)C(=O)C2=C(C1=O)C(OC=O)C(O)C1C(C)(C)CCCC21C (stereo unspecified) | n |
| CCC(=O)C(C)C1=Nc2nnc(CCCCCCCc3nnc4n3C(=O)C(C(C)C(=O)CC)=N4)n2C1=O (stereo unspecified) | n |
| CCOC(=O)C(=O)N/N=C1\C(=O)Nc2ccccc21 | n |
| Cc1c(OC(C)C(=O)O)ccc2c(-c3ccccc3)cc(=O)oc12 (stereo unspecified) | n |
| CC(CCCOC(c1ccccc1)(c1ccccc1)c1ccccc1)OC(=O)Nc1ccccc1 (stereo unspecified) | n |
| CSc1sc(C)cc1-c1nsc(=O)o1 | n |
| COC(=O)N1C[C@@]2(C=CC3(CC2)OCCO3)c2ccccc21 | n |
| O=C1C(=Cc2ccccc2[N+](=O)[O-])N=C(c2ccccc2)N1n1c(-c2ccccc2)nc2ccccc2c1=O | n |
| Cc1cccc(N2C(=O)C(=O)C(c3nc4ccccc4s3)C(=O)C2=O)c1C | n |
| O=C(C(=C(I)I)c1ccccc1)c1ccccc1 | n |
| O=C(Nc1ccccc1)Oc1ccccc1C1CCCCC1 | n |
| O=c1oc2ccccc2c(Nc2ccc3c(c2)Sc2ccccc2O3)c1[N+](=O)[O-] | n |
| CCOC(=O)C1C(=O)CC1(C)C (stereo unspecified) | n |
| N=c1n(C(=O)N2CCCC2)c2cc(Cl)ccc2n1C1=NCCN1 | n |
| CCOc1ccccc1/N=C\c1c2ccccc2cc2ccccc12 | n |
| O=C(SCc1cccc2ccccc12)c1ccc(Cl)cc1 | n |
| O=C1NC(NCc2ccc(F)cc2)=N/C1=C\c1ccccc1Cl | n |
| COc1cc(Nc2nc3ccccc3nc2C(=O)O)cc(OC)c1OC | n |
| Cn1c2ccccc2c(=O)c2c(O)cc3c(c21)C=CC1(CCCCC1)O3 | n |
| Oc1ccc(-c2nc3cc(C(F)(F)F)ccc3n2CC2CCCN3CCCCC23)cc1 (stereo unspecified) | n |
| COc1cc(C=O)c(-c2cc3c(cc2C=O)OCO3)c(OC)c1OC | n |
| Nc1nc(-c2cc(-c3cccc4ccccc34)nc(N)n2)cc(-c2cccc3ccccc23)n1 | n |
| CC#CCCCC1(C)CCCNC1=S (stereo unspecified) | n |
| CCOP(=O)(OCC)[C@H](O)c1ccsc1 | n |

----------
System: SF-268
Test: NCI tumour cell line growth inhibition, 48 h
Calls of active or inactive are those of the source. Cut-off read from the data, not from the text of the source: active = GI50 up to about 1.1 µM and inactive = higher.

| compound | GI50 |
| --- | --- |
| O=C1O[C@H](c2ccccc2)[C@@H]2CC3(CCN12)OCCO3 | > 100 µM (inactive) |
| CC(=O)OCC1OC(Oc2cc(C)c(O)cc2C/C=C(\C)CC/C=C(\C)C[C@@H](C=C(C)C)OC(C)=O)C(O)C(OC(C)=O)C1OC(C)=O (stereo not given in full) | 28.2 µM (inactive) |
| Brc1cc(CCOC2CCCCO2)c(-c2sccc2CCOC2CCCCO2)s1 (stereo not given) | 53.6 µM (inactive) |
| Sc1ncc(-c2cncc(-c3cnc(S)nc3)n2)cn1 | > 100 µM (inactive) |
| N=C(N)NS(=O)(=O)c1ccc(NNc2c3ccccc3nc3ccccc23)cc1 | 10.4 µM (inactive) |
| CCN(CC)CCNc1n[n+]([O-])c2cc([N+](=O)[O-])ccc2[n+]1[O-] | 0.661 µM (active) |
| O=S(=O)(O)CCS | > 100 µM (inactive) |
| Nc1ccc(S(=O)(=O)Nc2cnc3ccccc3n2)cc1 | > 87.9 µM (inactive) |
| Nc1ccc(Oc2ccc(C3(c4ccc(Oc5ccc(N)c(O)c5)cc4)C4CC5C6CC7CC5C3C(C7)C6C4)cc2)cc1O | 2.72 µM (inactive) |
| COc1ccccc1N1CCN(S(=O)(=O)c2ccc(Cl)cc2)C1=N | > 100 µM (inactive) |

----------
Test system: UACC-62
Assay: NCI tumour cell line growth inhibition, 48 h
The source made the active and inactive calls. No stated cut-off is given here; in the data, active = GI50 up to about 1.1 µM and inactive = higher.
readout label: GI50

| molecule | result |
| --- | --- |
| CCOC(=O)CCC(NC(=O)OCc1ccccc1)C(=O)NNC(=O)OC(C)(C)C (configuration not stated) | > 100 µM (inactive) |
| Nc1nc(-c2cc(-c3cccc4ccccc34)nc(N)n2)cc(-c2cccc3ccccc23)n1 | > 100 µM (inactive) |
| OC1(c2ccc(Cl)cc2)c2ccc3ccccc3c2C2=N[C@H]3CCCC[C@@H]3N21 (some centres not stated) | 7.93 µM (inactive) |
| N#Cc1nc(C(O)c2ccccc2)oc1N (configuration not stated) | > 100 µM (inactive) |
| Clc1ccc(Oc2ccc(/N=C/c3ccc(Cl)cc3Cl)cc2Cl)cc1 | 37.7 µM (inactive) |
| O=C1CCC(N2C(=O)c3ccccc3C2=O)C(=O)N1 (configuration not stated) [THALIDOMIDE] | > 100 µM (inactive) |
| O=C(O)CN1CCN2CCOCCN(CC1)CCN(CC(=O)O)CC2 | > 100 µM (inactive) |
| OCc1cc2c(cn1)[nH]c1ccc(NCc3ccccc3)cc12 | 17.2 µM (inactive) |
| CC(C)CCNc1ncnc2[nH]ncc12 | > 100 µM (inactive) |
| O=C(Nc1ccc(Cl)c(Cl)c1)C(=O)C(C(=O)c1ccccc1F)C1OC(=O)c2ccccc21 (configuration not stated) | 14.8 µM (inactive) |
| C=C[C@]1(O)CCC[C@]2(C)C(=O)CCC12C (some centres not stated) | > 100 µM (inactive) |
| Cc1c(N2C(=O)C(Cl)C2/C=C/c2ccccc2)c(=O)n(-c2ccccc2)n1C (configuration not stated) | 14.9 µM (inactive) |
